Source of measurements: patent US12491170B2

experiment: Stability in cryopreserved hepatocytes, human; details: human
VALUE_TYPE: AUC (µmol·min/L)
Numbers only, in µmol·min/L.

Would you please look over these solved cases?
molecule="CCCCCC(CCC1C(O)CC2Cc3c(cccc3OCC(=O)O)CC21)OC(=O)C(N)CCCCN (centres unmarked)" numeric_readout=13.76
molecule=CCCCC[C@H]1CC[C@@H]2[C@H]3Cc4cccc(OCC(=O)O)c4C[C@H]3C[C@H]2OC(=O)O1 numeric_readout=33.55
molecule="CCCCCC(CCC1C(O)CC2Cc3c(cccc3OCC(=O)O)CC21)OC(=O)c1cccc(O)c1 (centres unmarked)" numeric_readout=12.95
molecule="CCCCCC(CCC1C(O)CC2Cc3c(cccc3OCC(=O)O)CC21)OC(=O)C12CC3CC(CC(C3)C1)C2 (centres unmarked)" numeric_readout=34.85
molecule="CCCCCC(CCC1C(O)CC2Cc3c(cccc3OCC(=O)O)CC21)OC(=O)NC (centres unmarked)" numeric_readout=0.21

Give me AUC for each of these molecules, listed below.
1. CCCCCC(CCC1C(O)CC2Cc3c(cccc3OCC(=O)O)CC21)OC(=O)CCC(=O)N1CCOCC1 (centres unmarked)
2. CCCCCC(CCC1C(O)CC2Cc3c(cccc3OCC(=O)O)CC21)OC(C)=O (centres unmarked)
3. CCCCCC(CCC1C(O)CC2Cc3c(cccc3OCC(=O)O)CC21)OC(=O)CCC(=O)O (centres unmarked)

## Result
1: 5.16; 2: 62.18; 3: 26.49

* * *

details: dog
VALUE_TYPE: AUC (µmol·min/L)
Numbers only, in µmol·min/L.

For orientation, consider the following solved cases.
compound=CCCCC[C@@H](CC[C@@H]1[C@H]2Cc3cccc(OCC(=O)O)c3C[C@H]2C[C@H]1O)OC(=O)[C@@H](N)C(C)C output_unit=µmol·min/L numeric_readout=1.30
compound="CCCCCC(O)CCC1C(O)CC2Cc3c(cccc3OCC(=O)NCC(=O)O)CC21 (stereo not shown)" output_unit=µmol·min/L numeric_readout=0.00
compound="CCCCCC(CCC1C(O)CC2Cc3c(cccc3OCC(=O)O)CC21)OC(=O)OC (stereo not shown)" output_unit=µmol·min/L numeric_readout=55.95

Now turn to the next compound.
## Task Supply measured AUC of CCCCCC(CCC1C(O)CC2Cc3c(cccc3OCC(=O)O)CC21)OC(=O)c1ccc(OC(F)(F)F)cc1 (stereo not shown) in your reply.
## Result 14.33

* * *

assay: Stability in liver microsomes, rat
We label by threshold. Values of Trep Concentration 20 min strictly beneath 0.3 µM are Fulfilled. Values of 0.3 µM and up are Not fulfilled.

Reference set (3 entries):
compound="CCCCCC(CCC1C(O)CC2Cc3c(cccc3OCC(=O)O)CC21)OCCC (stereo not drawn) [XLVI]" discrete_label=Fulfilled
compound="CCCCCC(CCC1C(O)CC2Cc3c(cccc3OCC(=O)O)CC21)OC(=O)COc1ccc(OC(F)(F)F)cc1 (stereo not drawn) [LXIV]" discrete_label="Not fulfilled"
compound="CCCCCC(CCC1C(O)CC2Cc3c(cccc3OCC(=O)O)CC21)OC (stereo not drawn) [XLV]" discrete_label=Fulfilled

## Task Dear colleague, could you confirm whether Trep Concentration 20 min of CCCCCC(CCC1C(O)CC2Cc3c(cccc3OCC(=O)O)CC21)OC(=O)C(C)N (stereo not drawn) [XXXI] falls below 0.3 µM? Thanks.
## Result Fulfilled

## Task hey, is Trep Concentration 20 min for CCCCCC(CCC1C(O)CC2Cc3c(cccc3OCC(=O)O)CC21)OC(=O)NCCO (stereo not drawn) [LIX] lower than 0.3 µM or not?
## Result Fulfilled

## Task Consider the compound CCCCCC(CCC1C(O)CC2Cc3c(cccc3OCC(=O)O)CC21)OP(=O)(O)O (stereo not drawn) [VI] . Is its Trep Concentration 20 min strictly less than 0.3 µM?
## Result Not fulfilled

## Task Regarding CCCCCC(CCC1C(O)CC2Cc3c(cccc3OCC(=O)O)CC21)OC(=O)CC (stereo not drawn) [LV] , kindly confirm whether its Trep Concentration 20 min is beneath 0.3 µM.
## Result Not fulfilled

## Task Record CCCCCC(CCC1C(O)CC2Cc3c(cccc3OCC(=O)O)CC21)OC(=O)C1CCCN1 (stereo not drawn) [XXXVI] : is its Trep Concentration 20 min strictly below 0.3 µM?
## Result Not fulfilled

## Task Identify whether the compound CCCCCC(CCC1C(O)CC2Cc3c(cccc3OCC(=O)O)CC21)OC(=O)CCC(=O)N1CCOCC1 (stereo not drawn) [XXXIII] records Trep Concentration 20 min below 0.3 µM.
## Result Fulfilled

## Task Is the reported Trep Concentration 20 min for CCCCCC(CCC1C(O)CC2Cc3c(cccc3OCC(=O)O)CC21)OC(=O)CCN (stereo not drawn) [XXXVII] strictly below 0.3 µM?
## Result Fulfilled

* * *

assay: Stability in liver microsomes, human
Please respond with reported Treprostinil Concentration 30 min for every item in the list.
One number for each entry, in µM.

Please review the following examples before continuing.
compound="CCCCCC(CCC1C(O)CC2Cc3c(cccc3OCC(=O)O)CC21)OP(=O)(O)O (stereo not shown) [Prodrug VI]" output_unit=µM numeric_readout=0.038
compound="CCCCCC(CCC1C(OC(=O)CC)CC2Cc3c(cccc3OCC(=O)O)CC21)OC(=O)CC (stereo not shown) [Prodrug LXX, treprostinil dipropionate]" output_unit=µM numeric_readout=0.602
compound="CCCCCC(CCC1C(O)CC2Cc3c(cccc3OCC(=O)O)CC21)OC(=O)CC (stereo not shown) [Prodrug LV]" output_unit=µM numeric_readout=0.837

Kindly consider the entry below.
## Task Determine its reported Treprostinil Concentration 30 min: CCCCCC(CCC1C(O)CC2Cc3c(cccc3OCC(=O)O)CC21)OC(C)=O (stereo not shown) [Prodrug XLIII]
## Result 0.602

* * *

assay: Stability in liver microsomes, dog; settings: dog
Kindly supply the reported AUC Mono (treprostinil formed) values for the records listed here.
Please give the number followed by its unit.

compound="CCCCCC(CCC1C(O)CC2Cc3c(cccc3OCC(=O)O)CC21)OC(=O)CC (stereo not drawn) [Prodrug LV]" value_type="AUC Mono (treprostinil formed)" result="53.3 µmol·min/L"
compound="CCCCCC(CCC1C(OC(=O)CC)CC2Cc3c(cccc3OCC(=O)O)CC21)OC(=O)CC (stereo not drawn) [Prodrug LXX, treprostinil dipropionate]" value_type="AUC Mono (treprostinil formed)" result="71.9 µmol·min/L"
compound="CCCCCC(CCC1C(O)CC2Cc3c(cccc3OCC(=O)O)CC21)OC(=O)OC (stereo not drawn) [Prodrug IV]" value_type="AUC Mono (treprostinil formed)" result="56.0 µmol·min/L"

Parameters: items (list). Returns: AUC Mono (treprostinil formed) for each item.
1. CCCCCC(CCC1C(O)CC2Cc3c(cccc3OCC(=O)O)CC21)OC(C)=O (stereo not drawn) [Prodrug XLIII]
2. CCCCCC(CCC1C(O)CC2Cc3c(cccc3OCC(=O)O)CC21)OP(=O)(O)O (stereo not drawn) [Prodrug VI]
3. CCCCCC(CCC1C(OC(=O)OC)CC2Cc3c(cccc3OCC(=O)O)CC21)OC(=O)OC (stereo not drawn) [Prodrug LXXI, treprostinil dicarbonate]

## Result
54.7 µmol·min/L
29.4 µmol·min/L
56.2 µmol·min/L

* * *

Assay: Stability in liver microsomes, human
Description: Mixed-gender human liver microsomes, male Sprague-Dawley rat liver microsomes, and male Beagle dog liver microsomes were purchased from XenoTech. The reaction mixture, minus NADPH, was prepared as described below. […] Aliquots of the supernatant were removed, diluted 1:1 into distilled water containing internal standard, and analyzed by LC-MS/MS against calibration standards prepared in a matched matrix. All samples were analyzed for the dosed prodrugs as well as the drug, treprostinil. […]
VALUE_TYPE: Trep Concentration 10 min (µM)
Give bare numbers, in µM.

compound="CCCCCC(CCC1C(O)CC2Cc3c(cccc3OCC(=O)O)CC21)OC(=O)C(N)CCCCN (centres unmarked)" numeric_readout=0.0216
compound="CCCCCC(CCC1C(O)CC2Cc3c(cccc3OCC(=O)O)CC21)OC(=O)C12CC3CC(CC(C3)C1)C2 (centres unmarked)" numeric_readout=0.365
compound="CCCCCC(CCC1C(O)CC2Cc3c(cccc3OCC(=O)O)CC21)OC(=O)N1CCCCC1 (centres unmarked)" numeric_readout=0
compound="CCCCCC(CCC1C(O)CC2Cc3c(cccc3OCC(=O)O)CC21)OC(=O)NCCO (centres unmarked)" numeric_readout=0
compound="CCCCCC(CCC1C(O)CC2Cc3c(cccc3OCC(=O)O)CC21)OC(=O)CO (centres unmarked)" numeric_readout=0.632

For each of the compounds below, state Trep Concentration 10 min.
1. CCCCCC(CCC1C(O)CC2Cc3c(cccc3OCC(=O)O)CC21)OC(=O)COc1ccccc1 (centres unmarked)
2. CCCCCC(CCC1C(O)CC2Cc3c(cccc3OCC(=O)O)CC21)OCCC (centres unmarked)
3. CCCCCC(CCC1C(O)CC2Cc3c(cccc3OCC(=O)O)CC21)OC(=O)c1ccc(C(F)(F)F)cc1 (centres unmarked)
4. CCCCCC(CCC1C(O)CC2Cc3c(cccc3OCC(=O)O)CC21)OC(=O)C(C)C (centres unmarked)

## Result
0.762
0.0342
0.141
0.877

Quick one: give me Trep Concentration 10 min for each item below, same order please.
1. CCCCCC1CCC2C(CC3Cc4c(cccc4OCC(=O)O)CC32)OP(=O)(Oc2ccccc2)O1 (mixture of isomers)
2. CCCCCC(CCC1C(O)CC2Cc3c(cccc3OCC(=O)O)CC21)OC(=O)C(C)(C)C (centres unmarked)
3. CCCCCC(CCC1C(O)CC2Cc3c(cccc3OCC(=O)O)CC21)OC(=O)OCC(=O)O (centres unmarked)
4. CCCCCC(CCC1C(O)CC2Cc3c(cccc3OCC(=O)O)CC21)OC(=O)CCC(=O)O (centres unmarked)
5. CCCCCC(CCC1C(O)CC2Cc3c(cccc3OCC(=O)O)CC21)OC(=O)C1CCCN1 (centres unmarked)
6. CCCCCC(CCC1C(O)CC2Cc3c(cccc3OCC(=O)O)CC21)OC(=O)CCN (centres unmarked)
7. CCCCCC(CCC1C(O)CC2Cc3c(cccc3OCC(=O)O)CC21)OC(=O)N1CCC(O)CC1 (centres unmarked)

## Result
1. 0
2. 0.171
3. 0
4. 0.087
5. 0.502
6. 0.0147
7. 0

## Task Give a short answer stating reported Trep Concentration 10 min for CCCCCC(CCC1C(O)CC2Cc3c(cccc3OCC(=O)O)CC21)OC(=O)CCC(=O)N1CCOCC1 (centres unmarked) .
## Result 0
